Target: Human Calpain 2/NS1 (Homo sapiens, UniProt P17655)
Sequence (P17655 whole entry): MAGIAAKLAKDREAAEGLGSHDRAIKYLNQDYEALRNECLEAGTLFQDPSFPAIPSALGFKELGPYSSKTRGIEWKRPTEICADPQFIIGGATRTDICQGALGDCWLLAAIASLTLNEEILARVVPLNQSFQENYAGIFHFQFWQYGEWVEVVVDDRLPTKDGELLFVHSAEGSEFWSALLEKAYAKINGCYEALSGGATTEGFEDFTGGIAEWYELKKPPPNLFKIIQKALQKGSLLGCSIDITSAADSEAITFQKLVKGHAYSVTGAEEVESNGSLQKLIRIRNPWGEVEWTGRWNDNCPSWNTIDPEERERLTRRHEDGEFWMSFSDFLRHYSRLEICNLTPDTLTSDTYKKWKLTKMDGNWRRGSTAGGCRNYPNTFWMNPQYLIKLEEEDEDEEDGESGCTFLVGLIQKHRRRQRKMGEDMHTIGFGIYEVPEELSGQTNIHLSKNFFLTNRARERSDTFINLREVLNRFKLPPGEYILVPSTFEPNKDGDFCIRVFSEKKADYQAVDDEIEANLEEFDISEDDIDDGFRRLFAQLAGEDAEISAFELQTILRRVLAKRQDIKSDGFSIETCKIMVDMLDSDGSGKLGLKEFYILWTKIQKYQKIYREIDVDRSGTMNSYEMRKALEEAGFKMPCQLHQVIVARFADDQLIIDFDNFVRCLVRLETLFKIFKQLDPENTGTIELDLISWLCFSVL
Sequence (P04632 whole entry partner): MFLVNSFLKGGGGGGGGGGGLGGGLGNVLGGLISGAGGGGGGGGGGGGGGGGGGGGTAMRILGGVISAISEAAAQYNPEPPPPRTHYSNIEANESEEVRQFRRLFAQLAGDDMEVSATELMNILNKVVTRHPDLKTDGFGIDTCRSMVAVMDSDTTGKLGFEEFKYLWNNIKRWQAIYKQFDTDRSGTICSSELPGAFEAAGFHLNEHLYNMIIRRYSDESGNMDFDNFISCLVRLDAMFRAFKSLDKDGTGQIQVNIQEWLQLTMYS
Test: Biochemical inhibition of calpain 2, continuous fluorescence (FRET substrate) assay
Conditions: mean, read-out: Human Calpain 2/NS1 IC50 (nM)_MEAN
Give measured IC50 for each item. Keep answers brief.

Input: IC50 of O=C(NCc1ccccc1Cl)C(=O)C1CCCCOCCOCc2ccccc2C(=O)N1 (stereo not drawn) on Human Calpain 2/NS1 (Homo sapiens, UniProt P17655)?
Output: > 10000 nM

Input: Request: CCCCNC(=O)C(=O)[C@@H]1C/C=C\COCCOCc2ccccc2C(=O)N1
Output: > 10000 nM

Input: Also O=C[C@@H]1CCCCOCCOCc2ccccc2C(=O)N1 ?
Output: < 3000 nM

Input: Then this compound: CON(C)C(=O)[C@@H]1C/C=C/CCOc2ccnc(n2)-c2ccccc2C(=O)N1
Output: > 10000 nM

Input: How about O=C[C@@H]1CCCCCCOc2ccnc(c2)-c2ccccc2C(=O)N1 ?
Output: < 3000 nM

Input: What do you have for C/C1=C\C[C@@H](C(=O)C(N)=O)NC(=O)c2cc(C)nn2-c2cccc(c2)OCC1 ?
Output: < 3000 nM

Input: Now the same for O=C(NCc1ccccn1)C(=O)C1CCCCOCCOCc2ccccc2C(=O)N1 (stereo not drawn)
Output: > 10000 nM

Input: Follow-up entry: O=C(NCCc1ccccc1)C(=O)C1CCCCOCCOCc2ccccc2C(=O)N1 (stereo not drawn)
Output: 3000 to 10000 nM

Input: Follow-up item: CN(C)c1ccc(CNC(=O)C(=O)C2CCCCOCCOCc3ccccc3C(=O)N2)cc1 (stereo not drawn)
Output: > 10000 nM

Input: Query C/C1=C\C[C@@H](C=O)NC(=O)c2cc(C)nn2-c2cccc(c2)OCC1 next
Output: < 3000 nM

Input: Record: O=C[C@@H]1Cc2ccc(cc2)OCC=CCOc2ccc3nn(cc3c2)-c2ncccc2C(=O)N1
Output: < 3000 nM

Input: What do you get for O=C[C@@H]1CC=CCCOc2cccc(c2)-c2ccccc2C(=O)N1 ?
Output: < 3000 nM

Input: Please do the same for O=C(NCc1ccncc1)C(=O)C1CCCCOCCOCc2ccccc2C(=O)N1 (stereo not drawn) as well.
Output: 3000 to 10000 nM

Input: What about O=C(NC1(c2cccnc2)CC1)C(=O)C1CCCCOCCOCc2ccccc2C(=O)N1 (stereo not drawn) ?
Output: > 10000 nM

Input: Also, Cc1ccc(Cl)cc1CNC(=O)C(=O)C1CCCCOCCOCc2ccccc2C(=O)N1 (stereo not drawn) please.
Output: 3000 to 10000 nM

Input: Then this compound: O=C[C@@H]1C/C=C/COCCOCc2ccccc2C(=O)N1
Output: > 10000 nM

Input: And the next one, NC(=O)C(=O)[C@@H]1CCCCCCOc2ccnc(n2)-c2ccccc2C(=O)N1 ?
Output: < 3000 nM

Input: NC(=O)C(=O)[C@@H]1C/C=C/CCOc2ccnc(n2)-c2ccccc2C(=O)N1 , same question.
Output: < 3000 nM

* * *

Give measured IC50 for each item. Keep answers brief.
Biological target: Human Calpain 9/NS1 (Homo sapiens)
Assay: Biochemical inhibition of calpain 9, continuous fluorescence (FRET substrate) assay
Conditions: mean, read-out: Human Calpain 9/NS1 IC50 (nM)_MEAN

Input: Need IC50 of CC(C)NC(=O)C(=O)[C@@H]1C/C=C/COCCOCc2ccccc2C(=O)N1 , thanks.
Output: > 10000 nM

Input: Also O=C[C@@H]1Cc2cccc(c2)C=CCCOc2cccc(c2)-c2ncccc2C(=O)N1 , if possible.
Output: < 3000 nM

Input: Do the same for O=C[C@@H]1CCCCCOc2ccnc(c2)-c2ccccc2C(=O)N1 please
Output: < 3000 nM

Input: Check O=C[C@@H]1CCCCCCOc2ccnc(c2)-c2ccccc2C(=O)N1 too.
Output: < 3000 nM

Input: Then what about the compound CCCNC(=O)C(=O)C1CCCCOCCOCc2ccccc2C(=O)N1 (centres unmarked) ?
Output: > 10000 nM

* * *

Molecular target: Human Calpain 9/NS1 (Homo sapiens, UniProt O14815)
Sequence (O14815 whole entry): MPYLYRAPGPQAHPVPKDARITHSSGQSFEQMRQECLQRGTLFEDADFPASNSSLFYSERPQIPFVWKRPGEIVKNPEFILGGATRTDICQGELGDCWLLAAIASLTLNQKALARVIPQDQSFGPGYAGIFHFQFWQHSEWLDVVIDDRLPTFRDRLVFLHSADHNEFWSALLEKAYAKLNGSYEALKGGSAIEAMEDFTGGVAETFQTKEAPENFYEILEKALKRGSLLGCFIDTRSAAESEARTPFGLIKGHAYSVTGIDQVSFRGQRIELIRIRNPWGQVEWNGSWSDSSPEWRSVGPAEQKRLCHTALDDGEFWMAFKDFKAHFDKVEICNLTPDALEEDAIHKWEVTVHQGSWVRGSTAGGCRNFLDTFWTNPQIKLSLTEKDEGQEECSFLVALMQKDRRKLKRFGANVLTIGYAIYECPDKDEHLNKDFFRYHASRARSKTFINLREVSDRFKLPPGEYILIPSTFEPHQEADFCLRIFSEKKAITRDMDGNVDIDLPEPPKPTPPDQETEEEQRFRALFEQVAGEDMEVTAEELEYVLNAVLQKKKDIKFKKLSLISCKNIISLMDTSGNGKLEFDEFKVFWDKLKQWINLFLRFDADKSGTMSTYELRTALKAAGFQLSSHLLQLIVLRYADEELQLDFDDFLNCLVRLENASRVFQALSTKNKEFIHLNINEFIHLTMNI
Sequence (P04632 whole entry partner): as the sequence (P04632 whole entry partner) above
Test: Biochemical inhibition of calpain 9, continuous fluorescence (FRET substrate) assay
Details: mean, read-out: Human Calpain 9/NS1 IC50 (nM)_MEAN
Description: Calpain 1, 2, and 9 activity and inhibition thereof are assessed by means of a continuous fluorescence assay. The SensoLyte 520 Calpain substrate (Anaspec Inc) is optimized for detecting calpain activity. This substrate contains a novel internally quenched 5-FAM/QXL™ 520 FRET pair. Calpains 1, 2, and 9 cleave the FRET substrate into two separate fragments resulting in an increase of 5-FAM fluorescence that is proportional to calpain activity. […]
Readout kind: IC50

Input: Data request, read-out IC50, for O=C[C@@H]1CC=CCCCCCc2ncccc2C(=O)N1
Output: < 3000 nM

Input: Next: CS(=O)(=O)c1ccc(CNC(=O)C(=O)C2CCCCOCCOCc3ccccc3C(=O)N2)cc1 (stereo not shown)
Output: < 3000 nM

Input: Cool, now NC(=O)C(=O)[C@@H]1CCCCCCOc2ccnc(n2)-c2ccccc2C(=O)N1
Output: < 3000 nM

Input: Next: O=C(NCCN1CCOCC1)C(=O)C1CCCCOCCOCc2ccccc2C(=O)N1 (stereo not shown)
Output: > 10000 nM

Input: Do the same for O=C[C@@H]1Cc2ccccc2C=CCCCCOc2ccccc2C(=O)N1 please
Output: 3000 to 10000 nM

Input: Record: O=C(NCc1ccccc1)C(=O)C1CCCCOCCOCc2ccccc2C(=O)N1 (stereo not shown)
Output: < 3000 nM

Input: Here is the next compound: O=C(NC1CC1)C(=O)[C@@H]1Cc2ccc(cc2)OC/C=C/COc2cccc(c2)-c2ccn(n2)-c2ncccc2C(=O)N1
Output: < 3000 nM

Input: One more compound: CC(C)NC(=O)C(=O)[C@@H]1C/C=C\COCCOCc2ccccc2C(=O)N1
Output: > 10000 nM

Input: Now the same for Cn1cc2c(n1)-c1cccc(c1)OCCCCC[C@@H](C(=O)C(N)=O)NC2=O
Output: < 3000 nM

Input: Try this compound too: CCNC(=O)C(=O)[C@@H]1Cc2ccc(cc2)OC/C=C/COc2cccc(c2)-c2ccn(n2)-c2ncccc2C(=O)N1
Output: < 3000 nM

Input: How about CON(C)C(=O)[C@@H]1C/C=C\CCOc2ccnc(n2)-c2ccccc2C(=O)N1 ?
Output: > 10000 nM

Input: Same read-out for O=C[C@@H]1C/C=C/COCCOCc2ccccc2C(=O)N1 ?
Output: 3000 to 10000 nM

Input: CCOC(=O)CCNC(=O)C(=O)[C@@H]1C/C=C\COCCOCc2ccccc2C(=O)N1 ?
Output: > 10000 nM

Input: Next entry: O=C[C@@H]1CC=CCCOc2cccc(c2)-c2ccccc2C(=O)N1
Output: < 3000 nM

Input: Could you do the same for NC(=O)C(=O)[C@@H]1CCCCOCCOCc2ccccc2C(=O)N1 , please?
Output: < 3000 nM

Input: Moving on to the next compound: O=C(NC1CC1)C(=O)[C@@H]1Cc2ccc(cc2)OCCCCOc2ccc3c(cnn3-c3ncccc3C(=O)N1)c2
Output: < 3000 nM

Input: CCCCc1ccc(CNC(=O)C(=O)C2CCCCOCCOCc3ccccc3C(=O)N2)cc1 (stereo not shown) , same question.
Output: < 3000 nM

Input: Then this compound: CCCCNC(=O)C(=O)[C@@H]1C/C=C\COCCOCc2ccccc2C(=O)N1
Output: < 3000 nM

Input: Subsequent entry: O=C[C@@H]1CCCCCOc2ccnc(n2)-c2ccccc2C(=O)N1
Output: < 3000 nM

Input: For O=C[C@@H]1Cc2ccc(cc2)OC/C=C/COc2ccc3c(cnn3-c3ncccc3C(=O)N1)c2 then?
Output: < 3000 nM

Input: What do you get for O=C[C@@H]1C/C=C/CCCOc2ccccc2C(=O)N1 ?
Output: 3000 to 10000 nM

Input: Would you kindly repeat that for Cc1cccc(Cl)c1CNC(=O)C(=O)C1CCCCOCCOCc2ccccc2C(=O)N1 (stereo not shown) ?
Output: > 10000 nM

Input: Now give it for O=C[C@@H]1CC=CCCCOCc2ccccc2C(=O)N1 too.
Output: < 3000 nM

Input: And for O=C[C@@H]1C/C=C/CCCCCc2cccnc2C(=O)N1 ?
Output: < 3000 nM

Input: And C/C1=C\C[C@@H](C(=O)C(N)=O)NC(=O)c2cc(C)nn2-c2cccc(c2)OCC1 ?
Output: < 3000 nM

Input: And O=C(NCCc1ccc(Cl)cc1)C(=O)[C@@H]1C/C=C\COCCOCc2ccccc2C(=O)N1 ?
Output: < 3000 nM

Input: Another: O=C(NC1CC1)C(=O)[C@@H]1Cc2ccc(cc2)OCCCCOc2cccc(c2)-c2ccn(n2)-c2ncccc2C(=O)N1
Output: < 3000 nM

Input: What do you have for CC(C)(NC(=O)C(=O)C1CCCCOCCOCc2ccccc2C(=O)N1)c1cccnc1 (stereo not shown) ?
Output: > 10000 nM

Input: Same thing, different compound: O=C[C@@H]1CCCCCCCOc2ccccc2C(=O)N1
Output: < 3000 nM

Input: Next up: O=C(NCCc1ccccc1)C(=O)C1CCCCOCCOCc2ccccc2C(=O)N1 (stereo not shown)
Output: < 3000 nM

Input: And then C[C@@H](NC(=O)C(=O)C1CCCCOCCOCc2ccccc2C(=O)N1)c1cccnc1 (stereo partly shown) , what is it?
Output: > 10000 nM

Input: Can you check CS(=O)(=O)c1cccc(CNC(=O)C(=O)C2CCCCOCCOCc3ccccc3C(=O)N2)c1 (stereo not shown) next?
Output: < 3000 nM

Input: Try this compound next: O=C[C@@H]1CCCCCCCCc2ccccc2C(=O)N1
Output: < 3000 nM

Input: Same question, O=C[C@@H]1CCCCCCOc2ccccc2C(=O)N1 this time
Output: < 3000 nM

This collection of values is drawn from patent US11292801B2.
